Target: SSTR4 (Homo sapiens)
Construct: host or cells: CHO-K1
Assay: Inhibition of forskolin stimulated cAMP in CHO-K1 cells overexpressing SSTR4
Type: cell-based
Settings: read-out: SSTR4 Activity pEC50 (converted)
Description: Inhibition of Forskolin Stimulated cAMP in Cells Overexpressing SSTR4 This cell-based assay measures the ability of compounds to inhibit forskolin stimulated cAMP in CHO-K1 cells overexpressing SSTR4. […] Cellular cAMP levels are detected with a HTRF LANCE Ultra cAMP kit (Perkin Elmer, catalog number TRF0264). The assay is performed in accordance with the manufacturer's instructions. […] HTRF (665 nm/615 nm) is read on a Perkin Elmer ENVISION plate reader. […]
Listed here are compounds together with their documented EC50.
Your answer is read as nM, so omit the unit and give the number.

Please review the entries below; each comes with its answer.
CN1CCCC1CC(=O)NC(C)(C)c1nccc2ccccc12 (centres unmarked) [Example 203]; 3.98
CCN1CCCC1CC(=O)NC1(COc2ncccc2C)CC1 (centres unmarked) [Example 63]; 63.1
COc1ccccc1CC1(NC(=O)CC2CCCCN2C)CC1 (centres unmarked) [Example 74]; 31.6

Turning now to a further compound:
Query block: Would you mind telling me what EC50 value was observed for CC(C)(NC(=O)CC1NCCC1(F)F)c1nccc2ccccc12 (centres unmarked) [Example 100] ?
Result block: 200

====

Molecular target: SSTR4 (Homo sapiens, UniProt P31391)
Construct: host or cells: CHO-K1
Sequence (P31391 whole entry): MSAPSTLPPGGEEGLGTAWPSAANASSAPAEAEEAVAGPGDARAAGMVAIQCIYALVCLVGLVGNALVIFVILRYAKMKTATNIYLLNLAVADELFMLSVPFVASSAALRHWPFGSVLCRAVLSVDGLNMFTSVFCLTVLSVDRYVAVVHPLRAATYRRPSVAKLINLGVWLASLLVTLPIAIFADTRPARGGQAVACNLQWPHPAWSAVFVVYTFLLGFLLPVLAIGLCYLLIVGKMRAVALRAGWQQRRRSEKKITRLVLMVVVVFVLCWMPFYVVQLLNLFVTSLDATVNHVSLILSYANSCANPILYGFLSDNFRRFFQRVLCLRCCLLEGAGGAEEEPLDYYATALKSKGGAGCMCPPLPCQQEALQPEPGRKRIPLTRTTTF
Assay: SSTR4 I-125 somatostatin competition binding assay (CHO-K1 membranes)
Conditions: competition with I-125 somatostatin, membranes from CHO-K1 overexpressing SSTR4; read-out: SSTR4 Binding pIC50 (converted)
Lab note: compare IC50 with 80 nM, writing 1 if less and -1 if equal or more.

Reference set (4 entries):
CN1CCCC1CC(=O)NC(C)(C)c1nccc2ccccc12 (stereo not drawn) [Example 203]; -1
CC(C)(NC(=O)CCN1CCC1)c1cccc(F)c1 [Example 163]; -1
CN1CCC[C@@H]1CC(=O)NC(C)(C)[C@@H]1CCc2ccccc2O1 (single isomer, unassigned) [Example 131]; -1
CC[C@@H](CN1CCC1)C(=O)N[C@H](c1ccc(F)cc1)C(F)F [Example 204]; 1

Query block: Take the molecule Cc1cccc2c(C(C)(C)NC(=O)CC3CCCCN3C)noc12 (stereo not drawn) [Example 41] and say whether its IC50 is less than 80 nM.
Result block: 1

Query block: Take the molecule Cc1cc2ccccc2c(C(C)(C)NC(=O)C[C@@H]2CCCN2C)n1 [Example 22] and say whether its IC50 is less than 80 nM.
Result block: 1

Query block: Decide: IC50 of CN1CCC[C@H]1CC(=O)NC(C)(C)c1nn(C)c2ccccc12 [Example 4] strictly below 80 nM?
Result block: -1

Query block: In the record for CN1CCCCC1CC(=O)NC(C)(C)c1cc(Cl)ccc1Cl (stereo not drawn) [Example 45] , is IC50 less than 80 nM?
Result block: -1

Query block: Lab note: confirm whether the reported IC50 for this molecule is below 80 nM, equality not counting. molecule: Cc1cccc(C(C)(C)NC(=O)C[C@@H]2CCCN2C)c1Cl [Example 88]
Result block: -1

Query block: Strictly below 80 nM in IC50? CN1CCCC[C@H]1CC(=O)NC(C)(C)c1nccc2occc12 (single isomer, unassigned) [Example 15]
Result block: -1

Query block: Just wondering, is IC50 of CC[C@@H](CN1CCC1)C(=O)N[C@H](c1cccc(F)c1)C(F)F [Example 195] below 80 nM?
Result block: 1

Query block: Please let me know if CC[C@@H](CN1CCC1)C(=O)NC(C)(C)c1ccc(F)cc1 (single isomer, unassigned) [Example 183] shows IC50 below 80 nM.
Result block: -1

Query block: Strictly below 80 nM in IC50? C[C@@H](CN1CCC1)C(=O)NC(C)(C)c1ccccc1Cl (single isomer, unassigned) [Example 134]
Result block: 1

Query block: Please check: IC50 for O=C(CCN1CCC1)NC(c1ccccc1F)C(F)(F)F (single isomer, unassigned) [Example 209] , strictly under 80 nM or not?
Result block: -1

Query block: Threshold test, IC50 < 80 nM: CCN1CCCC1CC(=O)NC(C)(C)COc1ncccc1C(F)(F)F (stereo not drawn) [Example 50]
Result block: -1

Query block: Does the reported IC50 of the following molecule sit strictly below 80 nM? CN1CCCCC1CC(=O)NC(C)(C)c1nccc2occc12 (stereo not drawn) [Example 13]
Result block: -1

Query block: Given the entry Cc1cnc(C(C)(C)NC(=O)CC2CCCCN2C)c2ccccc12 (stereo not drawn) [Example 42] , would its reported IC50 be below 80 nM?
Result block: 1
